STUDY SYSTEM: hCDK1/B (Homo sapiens, UniProt P06493)
Sequence (P06493 whole entry): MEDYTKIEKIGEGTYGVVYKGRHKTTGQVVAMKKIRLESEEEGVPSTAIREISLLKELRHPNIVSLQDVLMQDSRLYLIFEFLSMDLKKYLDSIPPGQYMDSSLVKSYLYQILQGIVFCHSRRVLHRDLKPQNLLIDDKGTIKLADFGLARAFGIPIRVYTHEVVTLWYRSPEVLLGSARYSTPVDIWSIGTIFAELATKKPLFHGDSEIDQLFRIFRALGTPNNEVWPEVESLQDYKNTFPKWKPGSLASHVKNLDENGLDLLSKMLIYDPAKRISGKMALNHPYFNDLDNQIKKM
Sequence (P14635 whole entry partner): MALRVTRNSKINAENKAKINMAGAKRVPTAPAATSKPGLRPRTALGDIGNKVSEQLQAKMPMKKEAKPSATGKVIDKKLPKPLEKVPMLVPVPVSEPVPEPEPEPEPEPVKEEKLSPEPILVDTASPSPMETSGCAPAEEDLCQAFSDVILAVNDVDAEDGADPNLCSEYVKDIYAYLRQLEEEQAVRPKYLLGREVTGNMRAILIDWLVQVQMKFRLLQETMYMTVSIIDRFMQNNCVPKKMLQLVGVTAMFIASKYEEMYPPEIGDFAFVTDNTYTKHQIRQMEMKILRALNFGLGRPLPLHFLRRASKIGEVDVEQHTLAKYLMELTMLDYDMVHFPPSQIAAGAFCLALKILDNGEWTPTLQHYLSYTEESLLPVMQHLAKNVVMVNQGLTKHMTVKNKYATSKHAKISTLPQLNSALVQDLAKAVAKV
PROTOCOL NOTES: hCDK1/B
Assay type: biochemical
CONDITION LABEL: Table 1
pIC50: −log10 of the molar value.
REPORTED PROPERTY: pIC50

Here's what some known entries look like.
>  <COMPOUND>
c1cc(-c2cn[nH]c2C2CCCC2)cc(NC2CCC2)n1

>  <STUDY SYSTEM>
hCDK1/B (Homo sapiens, UniProt P06493)

>  <RESULT>
> 5.30

$$$$
>  <COMPOUND>
COCCNc1cc(-c2cn[nH]c2C(C)C)ccn1

>  <STUDY SYSTEM>
hCDK1/B (Homo sapiens, UniProt P06493)

>  <RESULT>
> 5.00

$$$$
>  <COMPOUND>
CC(C)c1[nH]ncc1-c1ccnc(NCCC2CCCN2C)c1 (stereo not shown)

>  <STUDY SYSTEM>
hCDK1/B (Homo sapiens, UniProt P06493)

>  <RESULT>
≤ 4.82

$$$$
>  <COMPOUND>
CC(C)c1[nH]ncc1-c1ccnc(NCCN2CCCC2)c1

>  <STUDY SYSTEM>
hCDK1/B (Homo sapiens, UniProt P06493)

>  <RESULT>
≤ 4.82

$$$$
>  <COMPOUND>
c1cc(-c2cn[nH]c2C2CCCC2)cc(NC2CCCCC2)n1

>  <STUDY SYSTEM>
hCDK1/B (Homo sapiens, UniProt P06493)

>  <RESULT>
> 5.30

$$$$
>  <COMPOUND>
CC(C)c1[nH]ncc1-c1ccnc(NC2CCN(C)CC2)c1

>  <STUDY SYSTEM>
hCDK1/B (Homo sapiens, UniProt P06493)

>  <RESULT>
> 5.00

$$$$
>  <COMPOUND>
CC(C)c1[nH]ncc1-c1ccnc(NCC2CCCCCC2)c1

>  <STUDY SYSTEM>
hCDK1/B (Homo sapiens, UniProt P06493)

>  <RESULT>
> 5.30

$$$$
>  <COMPOUND>
CC(C)c1[nH]ncc1-c1ccnc(NC2CCN(Cc3ccccc3)CC2)c1

>  <STUDY SYSTEM>
hCDK1/B (Homo sapiens, UniProt P06493)

>  <RESULT>
> 4.82

$$$$
>  <COMPOUND>
CC(C)c1[nH]ncc1-c1ccnc(NCCCCN2CCCC2)c1

>  <STUDY SYSTEM>
hCDK1/B (Homo sapiens, UniProt P06493)

>  <RESULT>
≤ 4.82

$$$$

Kindly review the next compound as well.
Problem: Please tell me the measured pIC50 for CC(C)c1[nH]ncc1-c1ccnc(NCc2ccccc2C(F)(F)F)c1 ; system: hCDK1/B (Homo sapiens, UniProt P06493).
Result: > 5.30
